Target: human RORγt ligand binding domain (RORγt LBD) (Homo sapiens (Human), UniProt P51449)
Sequence (P51449 other isoform, or with tags, fused parts or gaps): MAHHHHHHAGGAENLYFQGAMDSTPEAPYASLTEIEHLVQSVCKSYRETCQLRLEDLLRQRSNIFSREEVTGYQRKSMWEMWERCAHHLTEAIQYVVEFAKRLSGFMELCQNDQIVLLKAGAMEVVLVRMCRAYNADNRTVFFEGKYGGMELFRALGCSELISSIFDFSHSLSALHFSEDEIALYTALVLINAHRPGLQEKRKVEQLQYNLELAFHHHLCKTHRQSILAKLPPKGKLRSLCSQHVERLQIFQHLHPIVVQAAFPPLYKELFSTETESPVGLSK
Assay: RORγt ThermoFluor assay (thermal shift binding affinity)
Details: estimated from thermal shift

compound | value.unit | Kd
CCN(CC)c1nc2ccc(C(O)(c3ccc(C(F)(F)F)nc3)c3cncn3C)cc2c(C#N)c1Cc1ccc(-n2cccn2)cc1 (single isomer, unassigned) [Example 74B] | µM | 1.3
COc1nc2ccc(C(O)(c3ccc(C(F)(F)F)nc3)c3cncn3C)cc2c(Cl)c1Cc1ccc(C(F)(F)F)nc1 (single isomer, unassigned) [Example 94C] | µM | 0.0065
CON(C)c1nc2ccc(C(O)(c3ccc(C(F)(F)F)nc3)c3cncn3C)cc2c(Cl)c1Cc1ccc(-n2cccn2)cc1 (stereo not drawn) [Example 67A] | µM | 0.018
